- assaySystem: CYP2C9 (Homo sapiens)
- Construct: methods text says tolbutamide
- method: diclofenac hydroxylation, LC-MS/MS
- Format: biochemical
- conditionDetails: microsomes, read-out: IC50 value / Kushenol A
pIC50: −log10 of the molar value.
valueKind: pIC50

Known pIC50 results, listed for orientation:
The recorded pIC50 for entry C=C(C)[C@H](CC=C(C)C)Cc1c(O)c(CC=C(C)C)c(O)c2c1O[C@H](c1ccc(O)cc1O)[C@@H](O)C2=O [Kushenol M] equals < 4.30

Value of measured pIC50 for the entry C=C(C)[C@H](CC=C(C)C)Cc1c(O)cc(O)c2c1O[C@H](c1ccccc1O)CC2=O [Kushenol A] : < 4.30

We next turn to a different compound, shown below.
pIC50 measured on C=C(C)[C@H](CC=C(C)C)Cc1c(O)cc(O)c2c1O[C@H](c1ccc(O)cc1OC)CC2=O [Leachianone A] = < 4.30

###

- assaySystem: CYP2C8 (Homo sapiens)
- Construct: methods text says paclitaxel
- Sequence (P10632 1-490): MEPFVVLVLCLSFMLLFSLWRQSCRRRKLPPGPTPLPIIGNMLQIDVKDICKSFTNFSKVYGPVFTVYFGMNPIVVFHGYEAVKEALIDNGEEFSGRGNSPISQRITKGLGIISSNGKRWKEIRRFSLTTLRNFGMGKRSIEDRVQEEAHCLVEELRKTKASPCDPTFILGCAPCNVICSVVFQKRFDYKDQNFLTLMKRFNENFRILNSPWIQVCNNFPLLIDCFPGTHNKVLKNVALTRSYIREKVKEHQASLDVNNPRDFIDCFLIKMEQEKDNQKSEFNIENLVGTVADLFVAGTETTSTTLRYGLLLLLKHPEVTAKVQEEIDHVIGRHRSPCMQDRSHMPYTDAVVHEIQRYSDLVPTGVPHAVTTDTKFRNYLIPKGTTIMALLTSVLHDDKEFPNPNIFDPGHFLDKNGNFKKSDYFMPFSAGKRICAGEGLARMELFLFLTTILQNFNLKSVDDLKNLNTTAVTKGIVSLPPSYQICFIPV
- method: rosiglitazone hydroxylation, LC-MS/MS
- Assay type: biochemical
- conditionDetails: microsomes, read-out: IC50 value / Kushenol I
valueKind: pIC50
pIC50 field: float, defined as -log10 of concentration (mol/L).

Input C=C(C)[C@H](CC=C(C)C)Cc1c(O)cc(OC)c2c1O[C@H](c1ccc(O)cc1O)[C@@H](O)C2=O [Kushenol I] . Output pIC50: 6.17

###

- assaySystem: CYP2B6 (Homo sapiens, UniProt P20813)
- Construct: native enzyme in pooled human liver microsomes, bupropion 6-hydroxylation probe
- Sequence (P20813 whole entry): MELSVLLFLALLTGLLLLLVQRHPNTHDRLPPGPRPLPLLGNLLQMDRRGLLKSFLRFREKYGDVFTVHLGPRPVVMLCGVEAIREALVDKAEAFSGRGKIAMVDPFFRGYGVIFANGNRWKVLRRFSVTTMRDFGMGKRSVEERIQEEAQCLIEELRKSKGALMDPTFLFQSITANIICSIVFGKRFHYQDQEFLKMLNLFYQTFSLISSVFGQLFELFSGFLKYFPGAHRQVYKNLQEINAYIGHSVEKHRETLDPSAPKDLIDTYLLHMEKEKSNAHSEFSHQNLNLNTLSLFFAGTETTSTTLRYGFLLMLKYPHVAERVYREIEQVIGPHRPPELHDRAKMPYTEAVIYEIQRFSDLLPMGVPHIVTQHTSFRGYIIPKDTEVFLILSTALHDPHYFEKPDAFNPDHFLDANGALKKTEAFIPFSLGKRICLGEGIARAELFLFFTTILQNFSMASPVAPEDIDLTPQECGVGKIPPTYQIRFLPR
- method: bupropion 6-hydroxylation, LC-MS/MS
- Assay type: biochemical
- conditionDetails: microsomes, read-out: IC50 value / Sophoraflavone G
valueKind: IC50 (nM)
Value expressed in nM; do not type the unit.

Field IC50 (entry C=C(C)[C@H](CC=C(C)C)Cc1c(O)cc(O)c2c1O[C@H](c1ccc(O)cc1O)CC2=O ) reads 2420

###

// IC50 lookup, one value per entry
- assaySystem: CYP3A4 (Homo sapiens, UniProt P08684)
- Sequence (P08684 2-503): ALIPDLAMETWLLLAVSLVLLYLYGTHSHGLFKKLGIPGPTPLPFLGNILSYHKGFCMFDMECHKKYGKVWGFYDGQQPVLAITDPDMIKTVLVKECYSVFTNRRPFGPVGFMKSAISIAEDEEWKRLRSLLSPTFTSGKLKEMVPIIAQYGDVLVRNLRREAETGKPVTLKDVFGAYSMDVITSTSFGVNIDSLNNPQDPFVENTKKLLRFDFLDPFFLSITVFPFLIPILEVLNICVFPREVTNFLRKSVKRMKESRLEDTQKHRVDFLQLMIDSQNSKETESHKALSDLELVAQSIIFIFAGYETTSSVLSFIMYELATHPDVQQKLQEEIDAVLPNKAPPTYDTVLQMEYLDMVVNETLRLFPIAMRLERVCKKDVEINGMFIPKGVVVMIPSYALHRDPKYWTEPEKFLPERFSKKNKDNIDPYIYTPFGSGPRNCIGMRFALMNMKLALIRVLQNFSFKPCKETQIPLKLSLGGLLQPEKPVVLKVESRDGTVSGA
- method: midazolam […]'-hydroxylation, LC-MS/MS
- Assay type: biochemical
- Parameters: native enzyme in pooled human liver microsomes, midazolam 1'-hydroxylation probe (CYP3A5 may contribute)
- conditionDetails: microsomes, read-out: IC50 value / Kushenol A

Lab book: IC50 of C=C(C)[C@H](CC=C(C)C)Cc1c(O)cc(O)c2c1O[C@H](c1ccc(O)cc1O)CC2=O [Sophoraflavone G] noted as > 50 µM

***
Record summary for C=C(C)[C@H](CC=C(C)C)Cc1c(O)cc(O)c2c1O[C@H](c1ccccc1O)CC2=O [Kushenol A] : reported IC50 = > 50 µM

Value of measured IC50 for the entry C=C(C)[C@H](CC=C(C)C)Cc1c(O)cc(OC)c2c1O[C@H](c1ccc(O)cc1O)[C@@H](O)C2=O [Kushenol I] : > 50 µM

Form: molecule = C=C(C)[C@H](CC=C(C)C)Cc1c(O)cc(O)c2c1O[C@H](c1ccc(O)cc1OC)CC2=O [Leachianone A] ; IC50 = > 50 µM

Consider C=C(C)[C@H](CC=C(C)C)Cc1c(O)c(CC=C(C)C)c(O)c2c1O[C@H](c1ccc(O)cc1O)[C@@H](O)C2=O [Kushenol M] . Its measured IC50 is > 50 µM

// field: IC50; key: C=C(C)[C@H](CC=C(C)C)Cc1c(O)cc(O)c2c(=O)c(O)c(-c3ccc(O)cc3O)oc12 [Kushenol C] ; value = > 50 µM

###

- assaySystem: CYP3A4 (Homo sapiens)
- method: time-dependent inactivation, midazolam […]'-hydroxylation, LC-MS/MS
- Format: biochemical
- Design: native enzyme in pooled human liver microsomes, midazolam 1'-hydroxylation probe (CYP3A5 may contribute)
- conditionDetails: microsomes
valueKind: KI (inactivation) (nM)
Give just the number in nM; leave the unit off.

The reported KI (inactivation) of the molecule C=C(C)[C@H](CC=C(C)C)Cc1c(O)cc(OC)c2c1O[C@H](c1ccc(O)cc1O)[C@@H](O)C2=O was 240

###

- assaySystem: CYP2C8 (Homo sapiens, UniProt P10632)
- Construct: methods text says paclitaxel
- method: rosiglitazone hydroxylation, LC-MS/MS
- Assay type: biochemical
- conditionDetails: microsomes, read-out: IC50 value / Leachianone A
valueKind: pIC50
Interpret pIC50 as the negative base-10 log of the concentration measured in mol/L.

The compound listed as C=C(C)[C@H](CC=C(C)C)Cc1c(O)cc(O)c2c1O[C@H](c1ccc(O)cc1OC)CC2=O [Leachianone A] has a reported pIC50 of 6.12

###

- assaySystem: CYP2C9 (Homo sapiens, UniProt P11712)
- Construct: methods text says tolbutamide
- Sequence (P11712 whole entry): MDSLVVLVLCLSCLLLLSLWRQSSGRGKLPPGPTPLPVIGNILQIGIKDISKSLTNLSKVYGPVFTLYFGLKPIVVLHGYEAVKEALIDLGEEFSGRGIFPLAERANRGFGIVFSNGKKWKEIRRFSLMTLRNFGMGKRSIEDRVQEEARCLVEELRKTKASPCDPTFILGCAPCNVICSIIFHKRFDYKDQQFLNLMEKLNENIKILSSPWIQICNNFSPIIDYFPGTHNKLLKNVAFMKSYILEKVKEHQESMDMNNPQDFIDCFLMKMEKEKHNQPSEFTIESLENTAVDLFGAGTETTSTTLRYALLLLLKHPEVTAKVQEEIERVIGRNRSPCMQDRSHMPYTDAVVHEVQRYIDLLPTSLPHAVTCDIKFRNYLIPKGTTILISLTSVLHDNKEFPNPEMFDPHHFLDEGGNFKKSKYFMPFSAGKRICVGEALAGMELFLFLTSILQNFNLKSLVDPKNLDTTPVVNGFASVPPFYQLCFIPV
- method: diclofenac hydroxylation, LC-MS/MS
- Assay type: biochemical
- conditionDetails: microsomes, read-out: IC50 value / Sophoraflavone G
valueKind: pIC50
Please report pIC50 as the negative decimal logarithm of the molar concentration, giving only the number.

Measured on CYP2C9 (Homo sapiens, UniProt P11712), C=C(C)[C@H](CC=C(C)C)Cc1c(O)cc(O)c2c1O[C@H](c1ccc(O)cc1O)CC2=O has a documented pIC50 of 5.90

###

- assaySystem: CYP2C9 (Homo sapiens)
- Construct: methods text says tolbutamide
- method: diclofenac hydroxylation, LC-MS/MS
- Format: biochemical
- conditionDetails: microsomes, read-out: IC50 value / Kushenol C
- From the text: diclofenac hydroxylation, LC-MS/MS on CYP2C9
valueKind: pIC50
# pIC50: negative log10 of molar concentration; output just the value

Lab book: pIC50 of C=C(C)[C@H](CC=C(C)C)Cc1c(O)cc(O)c2c(=O)c(O)c(-c3ccc(O)cc3O)oc12 noted as 5.03

###

- assaySystem: CYP2C19 (Homo sapiens, UniProt P33261)
- Construct: native enzyme in pooled human liver microsomes, S-mephenytoin 4-hydroxylation probe (methods text misprints CYP2C18)
- Sequence (P33261 whole entry): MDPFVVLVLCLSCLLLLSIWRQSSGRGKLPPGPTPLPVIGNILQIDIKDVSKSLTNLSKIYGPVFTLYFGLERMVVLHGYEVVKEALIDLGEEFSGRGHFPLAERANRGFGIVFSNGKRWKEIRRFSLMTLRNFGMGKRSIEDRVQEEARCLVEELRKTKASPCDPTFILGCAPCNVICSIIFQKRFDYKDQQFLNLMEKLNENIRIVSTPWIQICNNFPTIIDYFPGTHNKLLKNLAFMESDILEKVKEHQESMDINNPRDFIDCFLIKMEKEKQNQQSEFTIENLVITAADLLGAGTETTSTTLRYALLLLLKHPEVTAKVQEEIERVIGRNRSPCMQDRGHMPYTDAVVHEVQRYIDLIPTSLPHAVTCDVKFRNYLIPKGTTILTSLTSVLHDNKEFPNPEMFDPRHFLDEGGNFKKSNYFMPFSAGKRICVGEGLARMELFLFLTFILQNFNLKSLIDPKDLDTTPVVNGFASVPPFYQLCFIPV
- method: S-mephenytoin 4-hydroxylation, LC-MS/MS
- Format: biochemical
- conditionDetails: microsomes, read-out: IC50 value / Kushenol A
- Text: S-mephenytoin 4-hydroxylation, LC-MS/MS on CYP2C19
pIC50: −log10 of the molar value.
valueKind: pIC50

Kindly note the recorded pIC50 for C=C(C)[C@H](CC=C(C)C)Cc1c(O)c(CC=C(C)C)c(O)c2c1O[C@H](c1ccc(O)cc1O)[C@@H](O)C2=O , which is < 4.30

Data point: C=C(C)[C@H](CC=C(C)C)Cc1c(O)cc(O)c2c(=O)c(O)c(-c3ccc(O)cc3O)oc12 ; pIC50 = < 4.30

Continuing:
For this compound ( C=C(C)[C@H](CC=C(C)C)Cc1c(O)cc(OC)c2c1O[C@H](c1ccc(O)cc1O)[C@@H](O)C2=O ), measured pIC50 is < 4.30

Just so you know, measured pIC50 for C=C(C)[C@H](CC=C(C)C)Cc1c(O)cc(O)c2c1O[C@H](c1ccccc1O)CC2=O came out at < 4.30

GET /value?item= C=C(C)[C@H](CC=C(C)C)Cc1c(O)cc(O)c2c1O[C@H](c1ccc(O)cc1OC)CC2=O &field=pIC50 returns < 4.30
